Tested on: A2780 ovarian cells
ASSAY_TEXT: A2780 Ovarian Cell Proliferation Assay in Lipid Reduced Medium, without Palmitate
Assay type: cell-based
STUDY_CONDITIONS: Homo sapiens, A2780; lipid reduced medium, without palmitate, 96 h, MTT; read-out: Proliferation A2780 w/o Palmitate pIC50 (converted)
Response field label takes met when IC50 is strictly below 70 nM and not met in all other cases.

>  <COMPOUND>
Cc1ccc(C(=O)N2CC(c3ccc(-c4cnn(C)c4)cc3)C2)cc1NC(=O)c1cccc(C(F)(F)F)n1

>  <CATEGORY_LABEL>
not met

$$$$
>  <COMPOUND>
CC(C)Nc1ccc(C(=O)Nc2cc(C(=O)N3CC[C@H](c4ccc(-c5ccnn5C)cc4)[C@@H](O)C3)ccc2Cl)cn1 (racemic)

>  <CATEGORY_LABEL>
not met

$$$$
>  <COMPOUND>
Cc1ccc(C(=O)N2CCC(c3ccc(-n4ccnc4)cc3)CC2)cc1NC(=O)c1ccc(Cl)nc1

>  <CATEGORY_LABEL>
met

$$$$
>  <COMPOUND>
Cc1ccc(C(=O)N2CC(c3ccc(-c4cccnc4N)cc3)C2)cc1NC(=O)c1ccc(N2CCOCC2)nc1

>  <CATEGORY_LABEL>
met

$$$$
>  <COMPOUND>
CC(C)Nc1ccc(C(=O)Nc2cc(C(=O)N3CCC(c4ccc(-c5cnn(C)c5)cc4)CC3)ccc2N(C)C)cn1

>  <CATEGORY_LABEL>
not met

$$$$
>  <COMPOUND>
Cc1ccc(C(=O)N2CC(c3ccc(-c4cnn(C)c4)cc3)C2)cc1NC(=O)c1ccncc1

>  <CATEGORY_LABEL>
not met

$$$$
>  <COMPOUND>
Cc1ccc(C(=O)N2CCC(c3ccc(-n4ccnc4)cc3)C(C)(C)C2)cc1NC(=O)c1ccc(Cl)nc1 (centres unmarked)

>  <CATEGORY_LABEL>
not met

$$$$
>  <COMPOUND>
Cc1ccc(C(=O)N2CCC(c3ccc(-c4ccc(F)cc4)cc3)CC2)cc1NC(=O)c1ccc(NC(C)C)nc1

>  <CATEGORY_LABEL>
not met

$$$$
>  <COMPOUND>
Cc1ccc(C(=O)N2CCC(c3ccc(-c4cnn(C(C)C)c4)cc3)CC2)cc1NC(=O)c1ccc(NC(C)C)nc1

>  <CATEGORY_LABEL>
met

$$$$
>  <COMPOUND>
Cc1ccc(C(=O)N2CCC(c3ccc(-c4ccoc4)cc3)CC2)cc1NC(=O)c1ccc(NC(C)C)nc1

>  <CATEGORY_LABEL>
not met

$$$$
>  <COMPOUND>
COc1ccc(C(=O)N2CCC(c3ccc(-c4cnn(C)c4)cc3)CC2)cc1NC(=O)c1ccc(Cl)nc1

>  <CATEGORY_LABEL>
not met

$$$$
>  <COMPOUND>
Cc1ccc(C(=O)N2CCC(c3ccc(-c4cnn(C)c4)cc3)CC2)cc1NC(=O)c1cnc(N2CCOCC2)nc1

>  <CATEGORY_LABEL>
met

$$$$

---

TEST_SYSTEM: FASN Keto-reductase Domain (Homo sapiens, UniProt P49327)
Construct: 10 μL hFASN enzyme (full length, 300 ng, purified in house) and 360 μM NADPH; made in house
Sequence (P49327 whole entry, the tested form may be a part): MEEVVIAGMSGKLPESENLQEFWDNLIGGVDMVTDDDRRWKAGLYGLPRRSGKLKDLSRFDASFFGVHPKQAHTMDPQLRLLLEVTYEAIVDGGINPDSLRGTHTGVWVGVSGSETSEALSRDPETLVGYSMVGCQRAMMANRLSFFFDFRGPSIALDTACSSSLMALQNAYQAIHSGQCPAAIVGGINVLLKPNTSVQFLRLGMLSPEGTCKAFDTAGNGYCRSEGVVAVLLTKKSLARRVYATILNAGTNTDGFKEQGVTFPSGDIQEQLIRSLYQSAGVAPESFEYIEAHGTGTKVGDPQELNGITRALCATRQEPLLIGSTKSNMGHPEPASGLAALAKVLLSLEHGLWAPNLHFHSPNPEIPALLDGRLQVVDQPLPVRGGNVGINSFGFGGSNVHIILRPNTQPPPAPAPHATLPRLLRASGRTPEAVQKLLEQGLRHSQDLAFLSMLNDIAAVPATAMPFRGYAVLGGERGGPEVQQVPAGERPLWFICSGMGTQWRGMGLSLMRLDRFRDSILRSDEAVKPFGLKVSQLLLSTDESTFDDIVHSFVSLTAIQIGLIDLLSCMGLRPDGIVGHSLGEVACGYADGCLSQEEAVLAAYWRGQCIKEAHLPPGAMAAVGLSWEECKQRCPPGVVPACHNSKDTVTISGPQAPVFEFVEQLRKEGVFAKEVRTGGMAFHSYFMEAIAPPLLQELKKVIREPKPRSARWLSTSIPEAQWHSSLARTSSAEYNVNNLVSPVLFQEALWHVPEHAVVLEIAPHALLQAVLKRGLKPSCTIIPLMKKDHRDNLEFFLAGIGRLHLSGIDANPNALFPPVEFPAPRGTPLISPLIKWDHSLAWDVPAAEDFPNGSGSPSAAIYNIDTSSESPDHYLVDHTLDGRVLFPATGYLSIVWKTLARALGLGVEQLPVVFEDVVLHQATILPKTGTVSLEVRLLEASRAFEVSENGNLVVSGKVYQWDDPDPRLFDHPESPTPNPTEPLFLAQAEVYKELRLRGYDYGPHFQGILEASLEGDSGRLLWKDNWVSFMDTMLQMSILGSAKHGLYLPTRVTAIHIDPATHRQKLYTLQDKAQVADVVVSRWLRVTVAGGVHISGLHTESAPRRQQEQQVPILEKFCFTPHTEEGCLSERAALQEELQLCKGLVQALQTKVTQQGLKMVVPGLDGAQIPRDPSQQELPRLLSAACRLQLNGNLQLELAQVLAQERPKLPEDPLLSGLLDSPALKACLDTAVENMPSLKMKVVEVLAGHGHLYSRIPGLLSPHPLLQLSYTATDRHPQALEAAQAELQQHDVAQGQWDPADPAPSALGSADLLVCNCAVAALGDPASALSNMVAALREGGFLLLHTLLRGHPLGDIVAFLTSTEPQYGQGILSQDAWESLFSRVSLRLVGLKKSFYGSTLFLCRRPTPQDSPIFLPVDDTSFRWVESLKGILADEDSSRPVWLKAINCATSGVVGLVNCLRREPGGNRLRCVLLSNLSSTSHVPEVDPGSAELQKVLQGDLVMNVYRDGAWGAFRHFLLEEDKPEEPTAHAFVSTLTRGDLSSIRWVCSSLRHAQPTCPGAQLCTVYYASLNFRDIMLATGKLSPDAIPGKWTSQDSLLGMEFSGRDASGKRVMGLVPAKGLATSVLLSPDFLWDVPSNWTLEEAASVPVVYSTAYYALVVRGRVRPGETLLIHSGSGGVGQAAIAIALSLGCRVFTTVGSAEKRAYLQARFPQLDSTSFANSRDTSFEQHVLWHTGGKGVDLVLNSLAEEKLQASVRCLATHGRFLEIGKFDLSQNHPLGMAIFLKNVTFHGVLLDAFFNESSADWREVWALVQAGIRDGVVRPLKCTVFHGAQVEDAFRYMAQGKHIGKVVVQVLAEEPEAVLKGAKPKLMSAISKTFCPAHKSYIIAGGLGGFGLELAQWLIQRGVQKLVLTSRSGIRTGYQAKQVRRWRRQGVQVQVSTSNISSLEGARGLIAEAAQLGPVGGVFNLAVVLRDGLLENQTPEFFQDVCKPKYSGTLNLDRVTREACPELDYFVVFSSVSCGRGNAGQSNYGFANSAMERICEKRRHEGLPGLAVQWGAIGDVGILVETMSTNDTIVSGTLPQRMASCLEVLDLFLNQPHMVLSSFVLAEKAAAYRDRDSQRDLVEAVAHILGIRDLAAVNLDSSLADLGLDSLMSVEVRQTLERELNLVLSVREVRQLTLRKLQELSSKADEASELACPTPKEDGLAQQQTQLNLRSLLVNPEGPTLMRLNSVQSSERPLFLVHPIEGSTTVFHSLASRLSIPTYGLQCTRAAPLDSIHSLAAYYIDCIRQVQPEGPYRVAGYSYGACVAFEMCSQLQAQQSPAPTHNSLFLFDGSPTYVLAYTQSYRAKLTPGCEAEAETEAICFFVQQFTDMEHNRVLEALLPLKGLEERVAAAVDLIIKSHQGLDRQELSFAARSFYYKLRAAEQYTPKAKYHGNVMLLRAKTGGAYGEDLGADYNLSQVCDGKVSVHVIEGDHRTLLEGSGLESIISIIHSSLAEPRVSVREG
ASSAY_TEXT: Fatty Acid Synthase Keto-Reductase Domain (FASN KR) Inhibition
Format: biochemical
STUDY_CONDITIONS: mean where tested more than once; read-out: FASN K-R Domain pIC50 (converted)
Quick list: IC50 per entry.

>  <COMPOUND>
Cc1ccc(C(=O)N2CCC(c3ccc(-c4cnn(C)c4)cc3)CC2)cc1NC(=O)C1CCN(CC(C)C)CC1 [Compound 179]

>  <TEST_SYSTEM>
FASN Keto-reductase Domain (Homo sapiens, UniProt P49327)

>  <IC50 / nM>
37.2

$$$$
>  <COMPOUND>
Cc1ccc(C(=O)N2CCC(c3ccc(-n4ccnc4)cc3)C(C)(C)C2)cc1NC(=O)c1ccc(Cl)nc1 (stereo not shown) [Compound #6]

>  <TEST_SYSTEM>
FASN Keto-reductase Domain (Homo sapiens, UniProt P49327)

>  <IC50 / nM>
89.1

$$$$
>  <COMPOUND>
CSc1ccc(C(=O)Nc2cc(C(=O)N3CCC(c4ccc(-c5cnn(C)c5)cc4)CC3)ccc2C)cc1 [Compound 126]

>  <TEST_SYSTEM>
FASN Keto-reductase Domain (Homo sapiens, UniProt P49327)

>  <IC50 / nM>
32.4

$$$$
>  <COMPOUND>
Cc1ccc(C(=O)N2CC(c3ccc(-c4cnn(C)c4)cc3)C2)cc1NC(=O)c1cnc(Cl)nc1 [Compound 154]

>  <TEST_SYSTEM>
FASN Keto-reductase Domain (Homo sapiens, UniProt P49327)

>  <IC50 / nM>
105

$$$$
>  <COMPOUND>
Cc1ccc(C(=O)N2CCC(c3ccc(-c4cnn(C)c4)cc3)CC2)cc1NC(=O)c1ccc(NC2CCC2)nc1 [Compound 134]

>  <TEST_SYSTEM>
FASN Keto-reductase Domain (Homo sapiens, UniProt P49327)

>  <IC50 / nM>
52.5

$$$$
>  <COMPOUND>
Cc1ccc(C(=O)N2CC(c3ccc(-c4cnn(C)c4)cc3)C2)cc1NC(=O)c1ccc2ccccc2n1 [Compound 79]

>  <TEST_SYSTEM>
FASN Keto-reductase Domain (Homo sapiens, UniProt P49327)

>  <IC50 / nM>
182

$$$$
>  <COMPOUND>
Cc1ccc(C(=O)N2CCC(c3ccc(-c4cnn(C)c4)cc3)CC2)cc1NC(=O)c1cnccc1Cl [Compound 114]

>  <TEST_SYSTEM>
FASN Keto-reductase Domain (Homo sapiens, UniProt P49327)

>  <IC50 / nM>
631

$$$$
